# key: entry, value: selectivity ratio
assay: Selectivity index, ratio of CC50 for cytotoxicity against dog MDCK cells to IC50 for antiviral activity against Oseltamivir resistant Influenza A virus (A/Tianjin-Jinnan/15/2009(H1N1)) infected in dog MDCK cells; assay type: toxicity, cell-based; conditions: read-out: Selectivity Index

Examples with their reported selectivity ratio follow.
CCOC(=O)C1=C[C@@H](OC(CC)CC)[C@H](NC(C)=O)[C@@H](N)C1    > 1
CC(=O)Nc1ccc2oc(-c3ccnc(C(=O)N4CCN([C@@H](c5ccc(F)cc5)c5nnn(C)n5)CC4)c3)nc2c1    > 30
NC(=O)c1ncn([C@@H]2O[C@H](CO)[C@@H](O)[C@H]2O)n1    > 46

Incoming: Dear colleague, please send me the reported selectivity ratio for CC(=O)Nc1ccc2oc(-c3ccnc(C(=O)N4CCN([C@H](c5ccccc5)c5nnn(C)n5)CC4)c3)nc2c1 when you can.
Outgoing: 2870

Incoming: Look up and state reported selectivity ratio for CC(=O)Nc1ccc2oc(-c3ccnc(C(=O)N4CCN([C@@H](c5ccccc5)c5nnn(C)n5)CC4)c3)nc2c1
Outgoing: > 23

Incoming: # return recorded selectivity ratio for input CC(=O)Nc1ccc2oc(-c3ccnc(C(=O)N4CCN([C@H](c5ccc(F)cc5)c5nnn(C)n5)CC4)c3)nc2c1
Outgoing: > 3330
